Read-out: solute carrier (SLCO1B1), SLCO1B1 (gene 10599)
Assay: LTEA_HepaRG_SLCO1B1: Life Technologies and Expression Analysis (LTEA) Assay for solute carrier (SLCO1B1) using HepaRG (AID 2283530)
Conditions: mRNA level, 48 h; actives raise or lower the signal
Calls of active or inactive are those of the source. How the source made its calls: active means hit-call score of the fitted dose curve at least 0.9, where 1 is the maximum; inactive means score below 0.9.
Outcomes: y = active, n = inactive

Molecule: COCc1cnc(C2=NC(C)(C(C)C)C(=O)N2)c(C(=O)O)c1 (configuration not stated)
Assigned Label: n
--
Molecule: CCOP(=O)(OCC)Oc1nc(Cl)c(Cl)cc1Cl
Assigned Label: y
--
Molecule: CC(C)C1(C)N=C(c2ncccc2C(=O)O)NC1=O (configuration not stated)
Assigned Label: n
--
Molecule: CS(=O)(=O)c1cc(C(F)(F)F)ccc1C(=O)c1cnoc1C1CC1
Assigned Label: n
--
Molecule: COCC(=O)N(c1c(C)cccc1C)C(C)C(=O)OC (configuration not stated)
Assigned Label: n
--
Molecule: CN=C=S
Assigned Label: n
--
Molecule: COc1cc(OC)nc(NC(=O)NS(=O)(=O)c2ncccc2OCC(F)(F)F)n1
Assigned Label: y
--
Molecule: CCCCOCN(C(=O)CCl)c1c(CC)cccc1CC
Assigned Label: n
--
Molecule: CC(C)(C)C(=O)C(Oc1ccc(Cl)cc1)n1cncn1 (configuration not stated)
Assigned Label: n
--
Molecule: COC(=O)c1c(C(F)F)nc(C(F)(F)F)c(C2=NCCS2)c1CC(C)C
Assigned Label: n
--
Molecule: COP(=S)(OC)Oc1ccc([N+](=O)[O-])c(C)c1
Assigned Label: n
--
Molecule: CCCCC(C#N)(Cn1cncn1)c1ccc(Cl)cc1 (configuration not stated)
Assigned Label: n
